These data points were gathered from ChEMBL document CHEMBL4689842.

Catalogue of Population Apoptotic (%) readings, one per entry.
- Tested on: HEK-293T
- TEST DESCRIPTION: Multiplex assay against HEK293T
- Format: toxicity, cell-based
- PROTOCOL CONDITIONS: human, 12 h, 10 µM, compound concentration 10 uM, replicate 1
// units = %; emit number, no label

Example compounds with recorded Population Apoptotic (%):
- Cn1nc(C(F)(F)F)cc1-c1cnc(N2CCc3cc(S(=O)(=O)Nc4c(F)cc(Cl)cc4F)cc(N4CCCC4=O)c32)nc1 [TP-020]: 17
- O=C(Nc1cccnn1)N1CCC(=Cc2cccc(Oc3ccc(C(F)(F)F)cn3)c2)CC1: 30
- CCCS(=O)(=O)c1nc(NC2CC2)cc(-c2ccc3c(ccn3C3CC(C)(C)NC(C)(C)C3)c2)n1: 65

Read off the recorded Population Apoptotic (%) for Cc1ccc(C(=O)Nc2cccc(C(F)(F)F)c2)cc1Nc1nc(-c2cccnc2)nc2c1cnn2C
86

----------
- Test system: HEK-293T
- TEST DESCRIPTION: Multiplex assay against HEK293T;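 for Population Tubulin-Different-Phenotype (%): share of the cells with healthy nuclei that show this phenotype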
- Format: toxicity, cell-based
- PROTOCOL CONDITIONS: human, 12 h, 10 µM, compound concentration 10 uM, replicate 2
One threshold, 60%, splits the recorded Population Tubulin-Different-Phenotype (%) values: lower ones are true (1), equal or higher ones are false (0).

* COc1cc2ncnc(Nc3ccc(F)c(Cl)c3)c2cc1NC(=O)/C=C/CN1CCCCC1 [DACOMITINIB ANHYDROUS] | true (1)
* CCn1c(=O)c(-c2ccc(-c3cncs3)cc2Cl)cc2cnc(Nc3ccc(N4CCN(C)CC4)cc3)nc21 | true (1)
* O=C1N/C(=N/c2ccccc2F)S/C1=C\c1ccc(C(=O)O)cc1 | true (1)
* CCOc1cc(C(=O)N2CCC(N3CCN(C)CC3)CC2)ccc1Nc1ncc2c(n1)N(C1CCCC1)c1ccccc1C(=O)N2C | true (1)
* O=C(Nc1cccnn1)N1CCC(=Cc2cccc(Oc3ccc(C(F)(F)F)cn3)c2)CC1 | true (1)
* Cc1cc(C)c(S(=O)(=O)N(Cc2ccc(-c3cccc(S(C)(=O)=O)c3)cc2)Cc2ccc(C(F)(F)F)o2)c(C)c1 | true (1)
* CCn1cc(-c2ccnc3[nH]c(-c4cccc(CN(C)C)c4)cc23)c(-c2ccc(NC(=O)N(C)C)cc2)n1 | false (0)
* S=C(NCCCc1c[nH]cn1)NCCCN(Cc1ccc(Cl)c(Cl)c1)c1ccc(Br)cn1 | false (0)

Is Population Tubulin-Different-Phenotype (%) of Cl.Oc1ccc2c3c1O[C@H]1c4[nH]c5c(c4C[C@@]4(O)[C@@H](C2)N(CC2CC2)CC[C@]314)C[C@@]1(O)[C@H]2Cc3ccc(O)c4c3[C@@]1(CCN2CC1CC1)[C@H]5O4 strictly below 60%?
true (1)

Is Population Tubulin-Different-Phenotype (%) of O=C1NC(=O)C(c2cnc3ccccn23)=C1c1cn2c3c(cc(F)cc13)CN(C(=O)N1CCCCC1)CC2 strictly below 60%?
false (0)

Is Population Tubulin-Different-Phenotype (%) of COC(=N)c1nc2ccc3ncnc(Nc4ccc(OC)cc4F)c3c2s1 strictly below 60%?
true (1)

Is Population Tubulin-Different-Phenotype (%) of COc1ccc(-c2ccc3c(N4CCOCC4)nc(N4C[C@@H](C)O[C@@H](C)C4)nc3n2)cc1CO strictly below 60%?
true (1)

Is Population Tubulin-Different-Phenotype (%) of Cn1nc(C(F)(F)F)cc1-c1cnc(N2CCc3cc(S(=O)(=O)Nc4c(F)cc(Cl)cc4F)cc(N4CCCC4=O)c32)nc1 strictly below 60%?
true (1)
